B1: library; a variant is named by its letters at N, in order (parent)
chain: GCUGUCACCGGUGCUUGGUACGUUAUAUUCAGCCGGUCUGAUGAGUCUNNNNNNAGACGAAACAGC

- Variants of: B1
- protocol.description: normalized RNA/DNA level without ligand (relative to sTRSVctl = 100) (log10 (% of sTRSVctl)); HEK293T overexpressing SLC46A1; higher = less ribozyme self-cleavage, higher mRNA level
- setup.conditions: without (6R,S)-folinic acid; ligand present: no
Binary classification by normalized RNA/DNA level without ligand (log10), with 2 as an inclusive lower bound for MET; all other cases are NOT MET.

Consider the worked cases shown below.
[
  {
    "variant.spec": "ACUGGA",
    "category": "NOT MET"
  },
  {
    "variant.spec": "GUCACC",
    "category": "MET"
  },
  {
    "variant.spec": "ACGUGU",
    "category": "MET"
  }
]

Has GGGCUC a recorded normalized RNA/DNA level without ligand (log10) greater than or equal to 2? MET
